- System: NCI-H460
- Assay overview: Antitumor activity against human NCI-H460 cells assessed as inhibition of cell growth by MTT assay
- Assay type: functional, cell-based
pIC50: −log10 of the molar value.
pIC50 listing for selected compounds.

Answered cases to consult:
• CC1(C)C=Cc2cc3c(cc2O1)OC[C@H]1c2ccc(NS(C)(=O)=O)cc2O[C@@H]31 = < 5.00
• COCCOc1ccc2c(c1)O[C@H]1c3ccc4c(c3OC[C@@H]21)C=CC(C)(C)O4 = < 5.00
• CC1(C)C=Cc2c(ccc3c2OC[C@H]2c4ccc([N+](=O)[O-])cc4O[C@@H]32)O1 = < 5.00

Task: # return recorded pIC50 for entry COCCOc1ccc2c(c1)O[C@H]1c3cc4c(cc3OC[C@@H]21)OC(C)(C)C=C4
Output: < 5.00

Task: Give me measured pIC50, please, for this compound: CC1(C)C=Cc2c(ccc3c2OC[C@H]2c4ccc(OCCN5CCOCC5)cc4O[C@@H]32)O1
Output: < 5.00

Task: Provide pIC50 value for the following compound: CC(=O)Nc1ccc2c(c1)O[C@H]1c3cc4c(cc3OC[C@@H]21)OC(C)(C)C=C4
Output: < 5.00

Task: Give pIC50 for CC1(C)C=Cc2c(ccc3c2OC[C@H]2c4ccc(O)cc4O[C@@H]32)O1
Output: 4.55

Task: Kindly indicate its recorded pIC50. Item: CC1(C)C=Cc2c(ccc3c2OC[C@H]2c4ccc(N)cc4O[C@@H]32)O1
Output: < 5.00

Task: Quote pIC50 reported for CC1(C)C=Cc2c(ccc3c2OC[C@H]2c4ccccc4O[C@@H]32)O1 please.
Output: < 5.00

Task: Entry CC1(C)C=Cc2cc3c(cc2O1)OC[C@H]1c2ccc(O)cc2O[C@@H]31 needs its pIC50 filled in; supply it.
Output: 4.62

###

- Test system: NCI-H460
- Assay overview: Antitumor activity against human NCI-H460 cells assessed as inhibition of cell growth by MTT assay
- Assay type: functional, cell-based
Value type: IC50

* CC1(C)C=Cc2cc3c(cc2O1)OC[C@H]1c2ccccc2O[C@@H]31 | > 10 µM

Task: State measured IC50 of the compound CN(C)CCOc1ccc2c(c1)O[C@H]1c3ccc4c(c3OC[C@@H]21)C=CC(C)(C)O4 with NCI-H460.
Output: 5.7 µM

Task: Lab note: NCI-H460 assay, enter IC50 for CC1(C)C=Cc2c(ccc3c2OC[C@H]2c4ccc(NS(C)(=O)=O)cc4O[C@@H]32)O1 here
Output: > 10 µM

Task: For NCI-H460, give the measured IC50 of the entry CC1(C)C=Cc2c(ccc3c2OC[C@H]2c4ccc(OCCN5CCNCC5)cc4O[C@@H]32)O1
Output: > 10 µM

Task: Report value only: IC50, NCI-H460, CC1(C)C=Cc2cc3c(cc2O1)OC[C@H]1c2ccc(OCCN4CCOCC4)cc2O[C@@H]31
Output: > 10 µM

Task: Lab note: record IC50 of CC1(C)C=Cc2cc3c(cc2O1)OC[C@H]1c2ccc([N+](=O)[O-])cc2O[C@@H]31 tested on NCI-H460.
Output: > 10 µM

Task: Write IC50 of CC1(C)C=Cc2cc3c(cc2O1)OC[C@H]1c2ccc(N)cc2O[C@@H]31 ; system used: NCI-H460
Output: > 10 µM

Task: Find IC50 for CC(=O)Nc1ccc2c(c1)O[C@H]1c3ccc4c(c3OC[C@@H]21)C=CC(C)(C)O4 on NCI-H460 and write it down.
Output: > 10 µM

Task: Report value: IC50, system: NCI-H460, compound: CC1(C)C=Cc2cc3c(cc2O1)OC[C@H]1c2ccc(OCCN4CCNCC4)cc2O[C@@H]31
Output: 4.3 µM

Task: Please respond with reported IC50 (system NCI-H460) for CN1CCN(CCOc2ccc3c(c2)O[C@H]2c4ccc5c(c4OC[C@@H]32)C=CC(C)(C)O5)CC1 .
Output: 4.2 µM

Task: State the measured IC50 (NCI-H460) of C#CC(C)(C)Oc1ccc2c(c1)OC[C@H]1c3ccc(O)cc3O[C@@H]21
Output: > 10 µM

Task: Please respond with reported IC50 (system NCI-H460) for COc1ccc2c(c1)OC[C@H]1c3ccc(O)cc3O[C@@H]21 .
Output: > 10 µM

Task: Under NCI-H460: report IC50 of COc1ccc2c(c1)O[C@H]1c3cc4c(cc3OC[C@@H]21)OC(C)(C)C=C4 .
Output: > 10 µM

Task: // fetch IC50; item: COc1ccc2c(c1)O[C@H]1c3ccc4c(c3OC[C@@H]21)C=CC(C)(C)O4 ; system: NCI-H460
Output: > 10 µM
